molecular target: PD-1/PD-L1 interaction (Homo sapiens); construct: expressed in transfected cells; host or cells: CHO cells (aAPC-PD-L1) co-cultured with Jurkat cells overexpressing PD-1 and an NFAT-luciferase reporter; assay: PD-1/PD-L1 NFAT reporter co-culture assay; format: cell-based; details: Jurkat PD-1 NFAT-luciferase cells co-cultured with aAPC-PD-L1 CHO cells, 6 hrs at 37° C.; read-out: EC50 NFAT Luciferase
Sequence (Q9NZQ7 19-290): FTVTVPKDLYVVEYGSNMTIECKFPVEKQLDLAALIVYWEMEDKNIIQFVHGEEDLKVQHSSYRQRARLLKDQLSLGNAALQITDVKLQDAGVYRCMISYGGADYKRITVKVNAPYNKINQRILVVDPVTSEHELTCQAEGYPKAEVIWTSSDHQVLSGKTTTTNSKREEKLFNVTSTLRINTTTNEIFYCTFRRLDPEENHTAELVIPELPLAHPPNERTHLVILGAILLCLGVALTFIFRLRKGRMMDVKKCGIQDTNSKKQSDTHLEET
pEC50: −log10 of the molar value.

| compound | pEC50 |
| --- | --- |
| Cc1c(COc2cc(OCc3cncc(C#N)c3)c(CNCCO)cc2Cl)cccc1-c1cccc(-c2ccc3c(c2)CCC3N2CC[C@H](O)C2)c1C (some centres unmarked) [Example 373] | 6.47 |
| CNC(=O)[C@](C)(CO)NCc1cc(Br)c(OCc2cccc(-c3cccc(COc4nc(OC)c(CN[C@@](C)(CO)C(=O)NC)cc4Br)c3C)c2C)nc1OC [Example 274] | 5.92 |
| C[C@@](CO)(NCc1cc(Br)c(O[C@H]2CCc3c(-c4cccc(-c5ccc(OCCNCCO)cc5)c4Cl)cccc32)nc1OCc1cncc(C#N)c1)C(=O)O [Example 663] | 6.93 |
| COc1cc(-c2cccc(-c3cccc(COc4cc(OCc5cncc(C#N)c5)c(CN[C@@](C)(CO)C(=O)O)cc4Cl)c3C)c2C)ccc1CN [Example 506] | 6.69 |
| Cc1c(COc2nc(OCCc3cc(C#N)ccn3)c(CNC[C@@H](O)CC(=O)O)cc2Br)cccc1-c1cccc(COc2nc(OCCc3cc(C#N)ccn3)c(CNC[C@@H](O)CC(=O)O)cc2Br)c1C [Example 128] | 6.63 |
